Target: FGFR3 (UniProt P22607)
Sequence (P22607 whole entry, looked up): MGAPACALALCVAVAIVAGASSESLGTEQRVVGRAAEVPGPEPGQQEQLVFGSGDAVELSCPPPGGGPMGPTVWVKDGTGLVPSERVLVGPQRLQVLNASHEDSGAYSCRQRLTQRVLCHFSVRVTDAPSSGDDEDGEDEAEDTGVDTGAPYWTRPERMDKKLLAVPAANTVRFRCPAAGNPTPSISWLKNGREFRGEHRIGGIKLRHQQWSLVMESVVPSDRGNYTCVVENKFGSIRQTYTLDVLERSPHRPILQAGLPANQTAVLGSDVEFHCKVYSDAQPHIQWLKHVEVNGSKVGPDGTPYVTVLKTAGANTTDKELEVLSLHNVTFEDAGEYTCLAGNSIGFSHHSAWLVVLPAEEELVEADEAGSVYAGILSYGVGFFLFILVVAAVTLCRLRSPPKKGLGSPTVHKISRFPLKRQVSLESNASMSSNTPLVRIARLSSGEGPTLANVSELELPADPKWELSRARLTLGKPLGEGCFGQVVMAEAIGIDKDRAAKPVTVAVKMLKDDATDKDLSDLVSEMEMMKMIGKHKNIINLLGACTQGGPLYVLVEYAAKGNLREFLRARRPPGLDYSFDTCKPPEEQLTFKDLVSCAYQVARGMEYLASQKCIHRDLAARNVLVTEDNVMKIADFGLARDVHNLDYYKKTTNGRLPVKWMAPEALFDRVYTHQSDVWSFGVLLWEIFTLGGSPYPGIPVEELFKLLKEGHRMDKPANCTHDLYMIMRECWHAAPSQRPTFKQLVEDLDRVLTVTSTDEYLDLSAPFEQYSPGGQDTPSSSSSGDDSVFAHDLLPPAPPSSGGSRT
Experiment: phosphorylation enrichment, bacterial display (enrichment ratio); higher = better substrate or ligand; peptides without Tyr show the background;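 also: 11-residue human phosphosite peptides and single-mutation variants displayed on the E. coli surface, counted by deep sequencing, each peptide's frequency after selection divided by its frequency in the unselected input library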;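 also: frequency after pTyr selection over input frequency; kinase dosed for 20-30% of maximal phosphorylation in three min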
property: phosphorylation enrichment
Field format: numeric only.

Entry VRVQLYDPDYM [CYP4A22_Y100] , phosphorylation enrichment reported as 0.741

Entry AKKVFYMIETR [SHH_Y253_V254M] , phosphorylation enrichment reported as 0.881

Entry SIKDKYVTALC [KCNH2_Y611_Y616C] , phosphorylation enrichment reported as 0.81

Entry PQQLWYTHEKK [UBTF_Y207] , phosphorylation enrichment reported as 0.481

Entry WRVIGYHVVVW [ATP13A2_Y50] , phosphorylation enrichment reported as 0.828

Entry TVLEPYADPYY [ZC3H18_Y367] , phosphorylation enrichment reported as 0.905

Entry FLTQHYDAIPQ [ANG_Y38_K41I] , phosphorylation enrichment reported as 0.866

Entry HSVVQYVGGVM [FGGY_Y136_L134V] , phosphorylation enrichment reported as 0.629

Entry RRQDLYSARDL [SART1_Y249] , phosphorylation enrichment reported as 0.615

Entry IGEVVYQWAVM [GRIN2A_Y502_R504W] , phosphorylation enrichment reported as 1.15

Entry LSIQTYSALNF [DES_Y423_P419S] , phosphorylation enrichment reported as 1.09

Entry RGSQQYRALPV [TUBB8_Y281_T285P] , phosphorylation enrichment reported as 0.546

Entry DPLLTYQFPPK [LMNA_Y481_R482Q] , phosphorylation enrichment reported as 1.17

Entry TKFRNYLIPKG [CYP2C8_Y379] , phosphorylation enrichment reported as 0.425

Entry NGTVTYAIVAG [CDH23_Y1672] , phosphorylation enrichment reported as 0.714

Entry LKLWDYSRGRC [WDR5B_Y239] , phosphorylation enrichment reported as 0.694

Entry IKEFKYGIEEH [GJA1_Y137_K134E] , phosphorylation enrichment reported as 0.684

Entry SVVVPYEPPEG [TP53_Y220_V225G] , phosphorylation enrichment reported as 0.714

Entry ELETLYKKAVK [CC2D2A_Y381] , phosphorylation enrichment reported as 0.731

Entry DLVRPYVHKIL [SF3B1_Y570] , phosphorylation enrichment reported as 0.566

Entry SIKGKYVTALF [KCNH2_Y611_D609G_YF] , phosphorylation enrichment reported as 0.449

Entry RENGPYYASYP [GDAP2_Y487_T489A] , phosphorylation enrichment reported as 1.92

Entry DFFDLYGGEKL [PTPN11_Y66_F71L_YF] , phosphorylation enrichment reported as 0.746

Entry DYYDLYGGEKK [PTPN11_Y66_F71K] , phosphorylation enrichment reported as 14.1

Entry QELRRYLESGV [MICA_Y194_K196E] , phosphorylation enrichment reported as 0.662

Entry RRERDYTNLPS [CSF1R_Y923] , phosphorylation enrichment reported as 0.541

Entry SEASFYKSLNL [NGEF_Y289_YF] , phosphorylation enrichment reported as 0.692

Entry PDSVDYPKKGF [CTSK_Y121_R122P_YF] , phosphorylation enrichment reported as 1.05

Entry GRLPEYNTRIA [CCDC151_Y542] , phosphorylation enrichment reported as 0.543

Entry DSLASYLDKVR [KRT10_Y160_R156S] , phosphorylation enrichment reported as 0.558

Entry YSMGCYEISLG [HMGCL_Y198] , phosphorylation enrichment reported as 0.817

Entry LREIRYQGGNR [VWF_Y1570_V1565L] , phosphorylation enrichment reported as 0.551

Entry EQLRAYLEGLC [HLA-C_Y183_T187L] , phosphorylation enrichment reported as 0.843

Entry EQLRAYLEGEC [HLA-C_Y183_T187E] , phosphorylation enrichment reported as 0.949

Entry TGTQLYGRFGS [ITGA2B_Y384] , phosphorylation enrichment reported as 0.513

Entry EHFSYYGMKAV [SLC15A2_Y61_R57H] , phosphorylation enrichment reported as 6.68

Entry RLVTRYIFNRE [HLA-DQB1_Y62_Y58L_YF] , phosphorylation enrichment reported as 0.695

Entry WLFFRYLAIGC [ATP2A2_Y836] , phosphorylation enrichment reported as 0.798

Entry FRIGPYQPNVP [MATR3_Y784_YF] , phosphorylation enrichment reported as 0.736

Entry VLALWYYYLTH [ZDHHC23_Y127] , phosphorylation enrichment reported as 5.65

Entry KPPPSYESEEE [BRD4_Y599_T598S] , phosphorylation enrichment reported as 0.71

Entry CTTIHYNYMHN [TP53_Y234_C238H] , phosphorylation enrichment reported as 0.521

Entry REVPVYISEDS [SYNM_Y460_G462S] , phosphorylation enrichment reported as 1.57

Entry LHRHAYPEQQQ [DPPA2_Y127_R131Q] , phosphorylation enrichment reported as 0.828

Entry GSIQQYIFKQE [PRG4_Y1271_YF] , phosphorylation enrichment reported as 0.574

Entry PYTDPYYDYEI [ZC3H18_Y371_A368T] , phosphorylation enrichment reported as 14.7

Entry YRIGPYQPNVP [MATR3_Y784] , phosphorylation enrichment reported as 0.712

Entry REEKNYKLKET [BCLAF1_Y459] , phosphorylation enrichment reported as 0.714

Entry VEQIHYIGQNE [HMOX2_Y140_R137Q] , phosphorylation enrichment reported as 0.612

Entry ERQIRYLNHQL [CEP152_Y268] , phosphorylation enrichment reported as 0.39

Entry RSSKTYLKTRS [LPL_Y329_M328T] , phosphorylation enrichment reported as 0.583

Entry SASSSYSRSRS [SRRM4_Y549_R547S] , phosphorylation enrichment reported as 0.46

Entry TTSQPYRRLCS [USH2A_Y534_C536R] , phosphorylation enrichment reported as 0.479

Entry GPCKAYELSQR [SETX_Y1297_R1294C] , phosphorylation enrichment reported as 0.547

Entry THPFPYLSLEI [MLH1_Y293_L292P] , phosphorylation enrichment reported as 0.677

Entry RDMMDYMPQGV [CYP21A2_Y259_L261P] , phosphorylation enrichment reported as 0.823

Entry SLNAVYPRAGR [OAS3_Y376_S381R] , phosphorylation enrichment reported as 0.445
